test_system: human DGKζ (Homo sapiens, UniProt Q13574)
Construct: TVMV protease cleavage site (C); Hexa-His (C); made in house; host or cells: Sf9 insect cells (baculovirus, Bac-to-Bac)
Sequence (Q13574 with tags, fused parts or gaps isoform Q13574-4): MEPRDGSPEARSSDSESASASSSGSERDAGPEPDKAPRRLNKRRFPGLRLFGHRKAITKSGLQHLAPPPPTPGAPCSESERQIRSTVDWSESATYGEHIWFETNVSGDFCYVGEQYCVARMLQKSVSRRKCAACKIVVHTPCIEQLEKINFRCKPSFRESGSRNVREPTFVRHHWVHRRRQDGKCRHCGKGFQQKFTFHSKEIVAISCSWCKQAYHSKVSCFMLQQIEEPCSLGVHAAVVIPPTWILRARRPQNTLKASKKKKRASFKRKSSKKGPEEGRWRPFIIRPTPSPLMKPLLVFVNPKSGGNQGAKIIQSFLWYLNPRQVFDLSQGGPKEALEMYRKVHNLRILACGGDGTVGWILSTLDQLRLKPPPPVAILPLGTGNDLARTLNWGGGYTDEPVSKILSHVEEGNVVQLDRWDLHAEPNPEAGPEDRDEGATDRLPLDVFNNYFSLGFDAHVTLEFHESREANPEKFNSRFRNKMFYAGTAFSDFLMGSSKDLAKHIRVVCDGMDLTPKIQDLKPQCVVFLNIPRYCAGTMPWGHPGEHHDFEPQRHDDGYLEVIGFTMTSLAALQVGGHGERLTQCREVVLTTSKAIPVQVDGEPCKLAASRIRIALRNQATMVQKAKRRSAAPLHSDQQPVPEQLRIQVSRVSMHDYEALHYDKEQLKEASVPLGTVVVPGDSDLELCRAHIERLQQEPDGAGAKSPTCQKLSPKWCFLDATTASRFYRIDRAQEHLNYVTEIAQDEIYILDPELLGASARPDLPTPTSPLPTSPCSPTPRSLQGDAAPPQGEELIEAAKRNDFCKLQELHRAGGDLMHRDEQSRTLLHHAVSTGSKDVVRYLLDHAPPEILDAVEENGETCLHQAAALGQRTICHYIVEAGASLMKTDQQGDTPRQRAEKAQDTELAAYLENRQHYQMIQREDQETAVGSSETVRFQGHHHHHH
test_summary: DGKζ LIPGLO assay (extruded liposome substrate), in vitro DGK inhibition
Type: biochemical
condition_description: liposome (LIPGLO) assay; read-out: DGKz LIPGLO IC50
pIC50: −log10 of the molar value.
# pIC50 >= 6 gives T, anything below gives F

compound	test_system	label_value
C[C@@H]1CN(c2cc(=O)n(C)c3ccc(C#N)nc23)[C@@H](C)CN1C(c1ccc(Cl)cc1)c1cccc2c1OCCO2 (stereo partly drawn)	human DGKζ (Homo sapiens, UniProt Q13574)	T
C[C@@H]1CN(c2cc(=O)n(C)c3ccc(C#N)nc23)[C@@H](C)CN1Cc1cnoc1	human DGKζ (Homo sapiens, UniProt Q13574)	F
C[C@@H]1CN(c2cc(=O)n(C)c3ccc(C#N)nc23)[C@@H](C)CN1C(c1ccc(F)cc1)c1c(F)cccc1F (single isomer, unassigned) [Example 274]	human DGKζ (Homo sapiens, UniProt Q13574)	F
Cn1c(=O)cc(N2CCN(C(c3ccc(F)cc3)c3ccc(F)cc3)CC2C2CC2)c2nc(C#N)ccc21 (single isomer, unassigned) [Example 24]	human DGKζ (Homo sapiens, UniProt Q13574)	F
CC(c1ccc(C2(C#N)CC2)cc1F)N1C[C@H](C)N(c2cc(=O)n(C)c3ccc(C#N)nc23)C[C@H]1C (single isomer, unassigned) [Example 1252]	human DGKζ (Homo sapiens, UniProt Q13574)	F
CC[C@@H]1CN(c2cc(=O)n(C)c3ccc(C#N)nc23)[C@@H](C)CN1Cc1ccc(OC(F)F)cc1	human DGKζ (Homo sapiens, UniProt Q13574)	T
CC(c1ccc(OC(F)(F)F)cc1F)N1C[C@H](C)N(c2cc(=O)n(C)c3ccc(C#N)nc23)C[C@H]1C (single isomer, unassigned) [Example 439]	human DGKζ (Homo sapiens, UniProt Q13574)	T
CCC(c1ccc(OC(F)(F)F)cc1)N1C[C@H](C)N(c2cc(=O)n(C)c3ccc(C#N)nc23)C[C@H]1CC (single isomer, unassigned) [Example 1199]	human DGKζ (Homo sapiens, UniProt Q13574)	T
CC[C@H]1CN(C(c2cccc(F)c2)c2ccc(F)cn2)[C@H](CC)CN1c1cc(=O)n(C)c2ccc(C#N)nc12 (single isomer, unassigned) [Example 1042]	human DGKζ (Homo sapiens, UniProt Q13574)	T
C[C@@H]1CN(c2cc(=O)n(C)c3ccc(C#N)nc23)[C@@H](C)CN1C(c1ccc(F)cc1)c1ccc(N2CCOCC2)cc1 (single isomer, unassigned) [Example 662]	human DGKζ (Homo sapiens, UniProt Q13574)	F

Req: Decide: is the reported value of pIC50 for Cc1noc(C)c1CN1C[C@H](C)N(c2cc(=O)n(C)c3ccc(C#N)nc23)C[C@H]1C equal to or greater than 6?
Resp: F

Req: Decide: is the reported value of pIC50 for COc1ccc(C(C)N2C[C@H](C)N(c3cc(=O)n(C)c4ccc(C#N)nc34)C[C@H]2C)nc1 (single isomer, unassigned) [Example 644] equal to or greater than 6?
Resp: T

Req: Decide: is the reported value of pIC50 for Cc1ccc(C(c2ccc(F)cc2)N2C[C@H](C)N(c3c(F)c(=O)n(C)c4ccc(C#N)nc34)C[C@H]2C)cc1 (stereo partly drawn) [Example 335] equal to or greater than 6?
Resp: F

Req: Decide: is the reported value of pIC50 for Cn1c(=O)cc(N2CCN(C(c3ccc(F)cc3)c3ccc(F)cc3)C(C(C)(C)F)C2)c2nc(C#N)ccc21 (single isomer, unassigned) [Example 80] equal to or greater than 6?
Resp: F

Req: Decide: is the reported value of pIC50 for CC(C)C(C)(O)C1CN(c2cc(=O)n(C)c3ccc(C#N)nc23)CCN1C(c1ccc(F)cc1)c1ccc(F)cc1 (single isomer, unassigned) [Example 88] equal to or greater than 6?
Resp: F

Req: Decide: is the reported value of pIC50 for CC[C@H]1CN(C(c2ccc(F)cc2)c2nc(C3CC3)no2)[C@H](CC)CN1c1cc(=O)n(C)c2ccc(C#N)nc12 (stereo partly drawn) [Example 1065] equal to or greater than 6?
Resp: T

Req: Decide: is the reported value of pIC50 for Cc1ccc(C(c2ccc(Cl)cc2)N2C[C@H](C)N(c3cc(=O)n(C)c4ccc(C#N)nc34)C[C@H]2C)nc1 (single isomer, unassigned) [Example 214] equal to or greater than 6?
Resp: T

Req: Decide: is the reported value of pIC50 for CC(C)[C@@H]1CN(c2cc(=O)n(C)c3ccc(C#N)nc23)CCN1C(c1ccc(F)cc1)c1ccc(F)cc1 equal to or greater than 6?
Resp: F

Req: Decide: is the reported value of pIC50 for CCC(c1ccc(OC(F)(F)F)cc1F)N1C[C@H](C)N(c2cc(=O)n(C)c3ccc(C#N)nc23)C[C@H]1CC (single isomer, unassigned) [Example 421] equal to or greater than 6?
Resp: F

Req: Decide: is the reported value of pIC50 for Cc1ccnc(C(c2ccc(F)cc2)N2C[C@H](C)N(c3cc(=O)n(C)c4ccc(C#N)nc34)C[C@H]2C)c1 (single isomer, unassigned) [Example 455] equal to or greater than 6?
Resp: F

Req: Decide: is the reported value of pIC50 for C[C@@H]1CN(c2cc(=O)n(C)c3ccc(C#N)nc23)[C@@H](C)CN1Cc1ccc(C2(C#N)CC2)cc1 equal to or greater than 6?
Resp: F

====

Tested on: Human venous whole blood
test_summary: Human whole blood IFN-γ assay;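 also: blood from healthy donors exposed to compound for 1 h before stimulation with anti-CD3 and anti-CD28 at 1 µg/mL each, IFN-γ quantified in supernatant by AlphaLISA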
Assay type: cell-based
condition_description: Homo sapiens, 24 h, human whole blood, anti-CD3 plus anti-CD28, 24 hours; 3 μM reference compound = 100% activation; read-out: INFg Whole Blood Normalized Agonist EC50
Catalogue of EC50 readings, one per entry.
Express the result in µM but write the number alone.

compound	scale_unit	recorded_measurement
C[C@@H]1CN(c2c(C#N)c(=O)n(C)c3ccc(C#N)nc23)CCN1Cc1ccc(F)cc1Cl [Example 993]	µM	3.8
C[C@@H]1CN(c2c(C#N)c(=O)n(C)c3ccc(C#N)nc23)CCN1Cc1ccccn1 [Example 990]	µM	20
Cc1cccc(C(C)N2CCN(c3c(C#N)c(=O)n(C)c4ccc(C#N)nc34)C[C@H]2C)n1 (stereo partly drawn) [Example 964]	µM	13

Req: Using known records, supply EC50 for C[C@@H]1CN(c2c(C#N)c(=O)n(C)c3ccc(C#N)nc23)[C@@H](C)CN1C(c1ccc(F)cc1)c1ccc(C(F)(F)F)cn1 (single isomer, unassigned) [Example 836]
Resp: 1.1

Req: Using known records, supply EC50 for CC(c1c(F)cccc1F)N1C[C@H](C)N(c2c(C#N)c(=O)n(C)c3ccc(C#N)nc23)C[C@H]1C (single isomer, unassigned) [Example 781]
Resp: 0.83

Req: Using known records, supply EC50 for C[C@@H]1CN(c2cc(=O)n(C)c3ccc(C#N)nc23)[C@@H](C)CN1C(c1ccc(OC(F)(F)F)cc1)c1nc(C2CC2)no1 (single isomer, unassigned) [Example 758]
Resp: 0.3

====

test_system: human DGKα (Homo sapiens)
Construct: TVMV protease cleavage site (C); Hexa-His (C); made in house; host or cells: Sf9 insect cells (baculovirus, Bac-to-Bac)
Sequence (P23743 with tags, fused parts or gaps): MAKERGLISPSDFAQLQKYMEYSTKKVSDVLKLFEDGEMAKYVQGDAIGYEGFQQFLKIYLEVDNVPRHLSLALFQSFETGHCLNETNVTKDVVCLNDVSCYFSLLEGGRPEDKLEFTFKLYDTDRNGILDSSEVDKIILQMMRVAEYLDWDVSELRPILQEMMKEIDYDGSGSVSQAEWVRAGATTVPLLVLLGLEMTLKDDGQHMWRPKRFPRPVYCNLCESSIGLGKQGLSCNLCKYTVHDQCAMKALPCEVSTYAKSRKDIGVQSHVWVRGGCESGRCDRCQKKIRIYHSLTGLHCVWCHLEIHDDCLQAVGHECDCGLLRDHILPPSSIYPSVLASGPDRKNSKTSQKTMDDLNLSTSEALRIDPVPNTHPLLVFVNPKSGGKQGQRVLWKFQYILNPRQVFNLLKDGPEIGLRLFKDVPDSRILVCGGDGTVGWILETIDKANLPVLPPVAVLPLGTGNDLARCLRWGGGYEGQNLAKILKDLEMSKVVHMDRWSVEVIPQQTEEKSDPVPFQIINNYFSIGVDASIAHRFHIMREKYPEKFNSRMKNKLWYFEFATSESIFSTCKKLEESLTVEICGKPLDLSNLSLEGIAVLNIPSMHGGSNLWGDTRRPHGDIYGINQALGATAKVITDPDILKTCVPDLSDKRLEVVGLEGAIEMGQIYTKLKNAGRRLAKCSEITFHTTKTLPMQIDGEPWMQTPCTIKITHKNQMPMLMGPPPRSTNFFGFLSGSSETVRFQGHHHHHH
test_summary: DGKα LIPGLO assay (extruded liposome substrate), in vitro DGK inhibition
Type: biochemical
condition_description: DGKα liposome (LIPGLO) assay; read-out: DGKa LIPGLO IC50
Catalogue of pIC50 readings, one per entry.
By convention, pIC50 is the negative base-10 log of a molar concentration.

// below: answered molecules
molecule	recorded_measurement
Cc1cc(C(C)N2C[C@H](C)N(c3c(C#N)c(=O)n(C)c4ccc(C#N)nc34)C[C@H]2C)no1 (single isomer, unassigned) [Example 804]	5.16
C[C@@H]1CN(c2c(C#N)c(=O)n(C)c3ccc(C#N)nc23)[C@@H](C)CN1C(c1ccc(Cl)cc1)c1ccc(F)cn1 (single isomer, unassigned) [Example 829]	5.26
Cc1cccc(C(c2ccc(F)cc2)N2C[C@H](C)N(c3c(C#N)c(=O)n(C)c4ccc(C#N)nc34)C[C@H]2C)n1 (some centres unmarked) [Example 816]	5.59
Cc1cc(C)cc(CN2CCN(c3c(C#N)c(=O)n(C)c4ccc(C#N)nc34)C[C@H]2C)c1 [Example 1000]	5.57
C[C@@H]1CN(c2cc(=O)n(C)c3ccc(C#N)nc23)[C@@H](C)CN1C(c1ccc(F)cc1)c1nnc(C2CC2)[nH]1 (single isomer, unassigned) [Example 766]	6.18
C[C@@H]1CN(c2cc(=O)n(C)c3ccc(C#N)nc23)[C@@H](C)CN1C(c1ccc(F)cc1)c1cc(C2CC2)on1 (single isomer, unassigned) [Example 729]	5.96

Req: Using known records, supply pIC50 for COc1ncccc1C(c1ccc(F)cc1)N1CCN(c2c(C#N)c(=O)n(C)c3ccc(C#N)nc23)C[C@H]1C (single isomer, unassigned) [Example 895]
Resp: 6.15

Req: Using known records, supply pIC50 for C[C@@H]1CN(c2c(C#N)c(=O)n(C)c3ccc(C#N)nc23)CCN1Cc1ccc(Cl)c(F)c1 [Example 1015]
Resp: 5.85

Req: Using known records, supply pIC50 for C[C@@H]1CN(c2c(C#N)c(=O)n(C)c3ccc(C#N)nc23)CCN1C(c1ccc(F)cc1)c1cccc2c1OC(C)(C)C2 (single isomer, unassigned) [Example 934]
Resp: 5.07

Req: Using known records, supply pIC50 for C[C@@H]1CN(c2c(C#N)c(=O)n(C)c3ccc(C#N)nc23)[C@@H](C)CN1C(c1ccccc1)c1ccc(Cl)cc1 (some centres unmarked) [Example 835]
Resp: 4.96

Req: Using known records, supply pIC50 for C[C@@H]1CN(c2c(C#N)c(=O)n(C)c3ccc(C#N)nc23)[C@@H](C)CN1C(c1ccc(F)cc1)c1nc(C2CC2)no1 (single isomer, unassigned) [Example 861]
Resp: 6.38

Reference source: patent US10669272B2
